Data origin: patent US20190144550A1

kon by entry:
target: T1, Monomeric 8-histidine tagged human EGFRvIII extracellular domain (human, UniProt P00533 298-645); assay: SPR, scFv-Fc captured by anti-human Fc, 37 C
T1 construct: Analyte in all SPR assays; not shown: 8-histidine tag
READOUT_TYPE: kon (M⁻¹ s⁻¹)

1. 30D8.LH scFv-Fc protein (Fc fusion, LH: light-chain variable domain at the N-terminus; not shown: human IgG1 Fc moiety) DIVMTQSPLSLPVTPGEPASISCRSSQSLLHNKRNNYLDWFLQKPGQSPQLLIYLASNRASGVPDRFSGGGSGTDFTLKISRVEAEDVGVYYCMQAQQTPITFGQGTRLEIKGGGGSGGGGSGGGGSGGGGSEVQLVESGGGLVKPGGSLRLSCEASGFTFSDAWMSWVRQAPGKGLEWVGRIKSKTDGGTTDYVVPLNGRFIISRDDSRNTLYLQLNNLKTEDTAVYYCTTVPGSYGYWGQGTLVTVSS :: 110000
2. 20E12.LH scFv-Fc protein (Fc fusion, LH: light-chain variable domain at the N-terminus; not shown: human IgG1 Fc moiety) DIVLTQSPLSLSVTPGEPASISCRSSQSLLYSNGKNYLDWFLHKPGQSPQLLIYLGSNRASGVPDRFSGSGSGIDFILKISRVEAEDVGVYYCMQAQQTPITFGQGTRLEIKGGGGSGGGGSGGGGSGGGGSEVNLVESGGGLVKPGGSLRLSCEASGFTFSYAWMSWVRQAPGKGLEWVGRIKSIADGGATDYAAPVRNRFTISRDDSRNTLYLEMHSLKTEDTAVYYCTTIPGNDAFDMWGQGTMVTVSS :: 16000
3. 14C11.HL scFv-Fc protein (Fc fusion, HL: heavy-chain variable domain at the N-terminus; not shown: human IgG1 Fc moiety) QVTLKESGPVLVKPTETLTLTCTVSGFSLNNARMGVSWIRQPPGKALEWFAHIFSTDEKSFRTSLRSRLTLSKDTSKSQVVLTMTNMDPVDTATYYCARDSSNYEGYFDYWGQGILVTVSSGGGGSGGGGSGGGGSGGGGSEIVMTQSPATLSVSPGERATLSCRASQSVSNNLAWYQQKPGQAPRLLIYGASTRATGVPARFSGSDSGTEFSLTISSLQSEDFAVYFCQQYKDWPFTFGPGTKVEIK :: 42000
4. 26B9.LH scFv-Fc protein (Fc fusion, LH: light-chain variable domain at the N-terminus; not shown: human IgG1 Fc moiety) DIVLTQSPLSLPVTPGEPASISCRSSQSLLHRDGFNYLDWFLQKPGQSPQLLIYLASSRASGVPDRFSGSDSGTDFTLKISRVEAEDVGVYYCMQALQTPITFGQGTRLEIKGGGGSGGGGSGGGGSGGGGSEVQLVESWGVLVKPGGSLRLSCAASGFIFNNAWMSWVRQAPGKGLEWIGRIKSKSDGGTTDYAAPVKDRFTISRDDSKDTLYLQMNGLKTEDTAVYFCTTAPGGPFDYWGQGTLVTVSS :: 69000
5. 32G8.HL scFv-Fc protein (Fc fusion, HL: heavy-chain variable domain at the N-terminus; not shown: human IgG1 Fc moiety) EVNLVESGGGLVKPGGSLRLSCEASGFTFSYAWMSWVRQAPGKGLEWVGRIKSITDGGVIDYAAPVRNRCTISRDDSRNTLYLEMHSLKTEDTAVYYCTTIPGNDDFDMWGQGRMVTVSSGGGGSGGGGSGGGGSGGGGSDIVLTQSPLSLSVTPGEPASISCRSSQSLLYSNGKNYLDWFLHKPGQSPQLLIYLGSNRASGVPDRFSGSGSGIDFILKISRVEAEDVGVYYCMQAQQTPITFGQGTRLEIK :: 8700
